Biological target: furin, P09958;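 further: purified furin at 1:10 enzyme:substrate in 50 mM HEPES pH 7.5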
Sequence (P09958 whole entry): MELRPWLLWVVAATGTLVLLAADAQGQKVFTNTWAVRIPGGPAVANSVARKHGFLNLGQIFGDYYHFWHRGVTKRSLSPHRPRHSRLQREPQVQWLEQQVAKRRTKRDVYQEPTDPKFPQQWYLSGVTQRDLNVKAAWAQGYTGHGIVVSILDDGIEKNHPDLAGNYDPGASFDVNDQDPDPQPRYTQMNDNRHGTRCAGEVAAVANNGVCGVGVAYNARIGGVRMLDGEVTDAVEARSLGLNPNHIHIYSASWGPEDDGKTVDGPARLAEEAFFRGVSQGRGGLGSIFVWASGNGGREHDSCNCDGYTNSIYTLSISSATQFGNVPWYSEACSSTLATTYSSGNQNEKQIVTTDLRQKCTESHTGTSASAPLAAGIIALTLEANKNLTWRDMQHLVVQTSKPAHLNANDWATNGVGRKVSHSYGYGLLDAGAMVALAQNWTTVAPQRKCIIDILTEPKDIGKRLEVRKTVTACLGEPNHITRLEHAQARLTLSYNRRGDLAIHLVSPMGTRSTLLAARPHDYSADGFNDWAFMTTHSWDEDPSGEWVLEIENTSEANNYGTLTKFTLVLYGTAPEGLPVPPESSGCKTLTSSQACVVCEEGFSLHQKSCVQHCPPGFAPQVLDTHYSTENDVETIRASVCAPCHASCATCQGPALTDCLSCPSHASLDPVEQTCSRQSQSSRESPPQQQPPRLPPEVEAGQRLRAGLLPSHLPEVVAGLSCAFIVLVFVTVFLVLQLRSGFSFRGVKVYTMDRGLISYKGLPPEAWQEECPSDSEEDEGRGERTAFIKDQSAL
Experiment: furin cleavage Z-score vs untreated control; higher = more cleavage, active = 3.5 or more, inactive = 1 or less, 8 variable residues between constant flanks
Details: 15 min
The list shows a part of the results. How many sequences the whole screen found active is unknown.
furin cleavage Z-score overview
property_label: furin cleavage Z-score

CARKERRKHKAGNASASA [FS-2959] ... -0.106
CAAKERLKRKAGNASASA [FS-213] ... 9.78
CADPKRTIGQAGNASASA [FS-1982] ... -0.891
CAIHHRQKRSAGNASASA [FS-540] ... 10.4
CANKKRGGTAAGNASASA [WN4] ... -0.337
CANKKRKARWAGNASASA [FS-1238] ... 7.47
CAELQRQKRSAGNASASA [FS-762] ... 11.5
